Reported IC50 by item:
# STUDY TARGET: T1, human PCSK9 (human, UniProt Q8NBP7 31-692)
# T1 construct: also called hPCSK9; huPCSK9
# ASSAY NAME: PCSK9:EGFA FRET 2, competition
The answer is to be given in nM; state only the numeric part.

Here is how some binders turned out for IC50.
BINDER: PCSK9-PKE2 tandem 4472_D06 (designed binder, not shown: The inter-domain linker; In the real molecule the two parts below are one polypeptide joined by this linker) PCSK9 domain: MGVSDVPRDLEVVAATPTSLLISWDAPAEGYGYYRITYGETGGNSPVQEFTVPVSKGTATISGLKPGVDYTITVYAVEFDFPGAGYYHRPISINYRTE PKE2 domain: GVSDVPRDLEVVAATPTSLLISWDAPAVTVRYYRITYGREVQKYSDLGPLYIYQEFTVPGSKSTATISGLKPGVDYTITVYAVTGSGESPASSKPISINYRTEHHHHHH
PROPERTY NAME: IC50
EXPERIMENTAL RESULT: 6.51
//
BINDER: PCSK9 Adnectin 2382_D09 (designed binder) MGVSDVPRDLEVVAATPTSLLISWDAPAEGYGYYRITYGETGGNSPVQEFTVPVSKGTATISGLKPGVDYTITVYAVEFDFPGAGYYHRPISINYRT
PROPERTY NAME: IC50
EXPERIMENTAL RESULT: 10.6
//
BINDER: PCSK9-PKE2 tandem Adnectin w/ his tag 4472_C06 (designed binder, also called ATI-1574; ADX_4472_C06) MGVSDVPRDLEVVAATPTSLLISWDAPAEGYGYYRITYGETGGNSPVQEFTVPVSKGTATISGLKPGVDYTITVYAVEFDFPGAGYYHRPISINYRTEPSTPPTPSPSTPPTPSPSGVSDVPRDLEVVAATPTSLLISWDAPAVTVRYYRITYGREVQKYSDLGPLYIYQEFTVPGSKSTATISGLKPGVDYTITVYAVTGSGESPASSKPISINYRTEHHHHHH
PROPERTY NAME: IC50
EXPERIMENTAL RESULT: 3.09
//
BINDER: PCSK9-PKE2 tandem 4472_B09 (designed binder, not shown: small tags and cut ends, The two parts are one polypeptide in the real molecule, joined by the undisclosed linker K; they are given here as separate chains.) PCSK9 10Fn3: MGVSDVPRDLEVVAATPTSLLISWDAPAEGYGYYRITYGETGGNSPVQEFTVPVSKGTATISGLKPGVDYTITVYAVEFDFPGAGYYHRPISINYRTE PKE2 10Fn3: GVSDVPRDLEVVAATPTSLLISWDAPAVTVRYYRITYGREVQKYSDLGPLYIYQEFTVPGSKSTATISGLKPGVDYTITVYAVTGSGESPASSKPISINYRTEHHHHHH
PROPERTY NAME: IC50
EXPERIMENTAL RESULT: 6.95

QUERY: Tell us which IC50 value is on record for PCSK9-PKE2 tandem 4472_A11 (designed binder, In the real molecule the two parts given here are one polypeptide, joined by the undisclosed linker B. They are written as two chains only because the linker has no letters., not shown: Linker 'B' joining ...NYRTE of the PCSK9 domain to GVSDV... of the PKE2 domain) PCSK9 domain: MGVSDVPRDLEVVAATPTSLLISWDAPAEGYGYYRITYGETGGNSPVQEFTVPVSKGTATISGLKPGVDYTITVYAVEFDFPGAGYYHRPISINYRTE PKE2 domain: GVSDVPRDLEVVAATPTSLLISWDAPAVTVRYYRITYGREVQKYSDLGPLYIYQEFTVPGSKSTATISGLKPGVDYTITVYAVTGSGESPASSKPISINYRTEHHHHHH
RESULT: 3.76

QUERY: Tell us which IC50 value is on record for PCSK9-PKE2 tandem 4472_B10 (designed binder, The real molecule is ONE polypeptide: PCSK9 domain, undisclosed linker J, PKE2 domain. It is given here as two chains because the linker letters are unknown., not shown: The inter-domain linker) PCSK9 domain: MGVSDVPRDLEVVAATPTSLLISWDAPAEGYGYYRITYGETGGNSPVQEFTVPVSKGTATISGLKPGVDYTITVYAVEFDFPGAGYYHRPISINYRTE PKE2 domain: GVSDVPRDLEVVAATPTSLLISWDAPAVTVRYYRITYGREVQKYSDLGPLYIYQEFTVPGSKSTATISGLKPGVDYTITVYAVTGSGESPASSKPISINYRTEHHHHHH
RESULT: 6.97
